measurement-description: Study on stability under influencing factors (high temperature, high humidity, light) of the crystal forms
Type: physicochemical
condition-parameters: 60° C., open, 30 days
Text: In order to evaluate the solid stability of the crystal forms of the present application, the stability of each of the crystal form I, the crystal form A, the crystal form D, the crystal form E and the crystal form F under influencing factors (high temperature, high humidity and light) was investigated. […]
measure: Impurity content

compound="Cn1cc(-c2nc(N=S(C)(C)=O)ccc2Oc2ccc(F)cc2F)c2cc[nH]c2c1=O [crystal form E]" measure="Impurity content" val=0.21%
compound="Cn1cc(-c2nc(N=S(C)(C)=O)ccc2Oc2ccc(F)cc2F)c2cc[nH]c2c1=O [crystal form F]" measure="Impurity content" val=0.22%
compound="Cn1cc(-c2nc(N=S(C)(C)=O)ccc2Oc2ccc(F)cc2F)c2cc[nH]c2c1=O [crystal form D]" measure="Impurity content" val=0.44%

Ask | Please report the recorded Impurity content for Cn1cc(-c2nc(N=S(C)(C)=O)ccc2Oc2ccc(F)cc2F)c2cc[nH]c2c1=O [crystal form I] .
Reply | 1.31%

====

assayed-system: BRD4 (BD2) (Homo sapiens (Human))
measurement-description: In vitro enzymatic activity assay on BRD4 (BD2), HTRF
condition-parameters: GST-BRD4 (BD2, 349-460 aa)
measure: pIC50
Numbers only, as −log10 of the molar value.

Ask | Please report the recorded pIC50 for Cn1cc(-c2nc(N=S(C)(C)=O)ccc2Oc2ccc(F)cc2F)c2cc[nH]c2c1=O .
Reply | 9.60

====

measurement-description: Study on stability under influencing factors (high temperature, high humidity, light) of the crystal forms
Type: physicochemical
condition-parameters: starting crystal form
Excerpt: In order to evaluate the solid stability of the crystal forms of the present application, the stability of each of the crystal form I, the crystal form A, the crystal form D, the crystal form E and the crystal form F under influencing factors (high temperature, high humidity and light) was investigated. […]
Each entry gets class 0 if its Impurity content stays under 1%, and class 1 if its Impurity content is 1% or above.

Past entries and their recorded results:
compound="Cn1cc(-c2nc(N=S(C)(C)=O)ccc2Oc2ccc(F)cc2F)c2cc[nH]c2c1=O [crystal form D]" group="class 0"
compound="Cn1cc(-c2nc(N=S(C)(C)=O)ccc2Oc2ccc(F)cc2F)c2cc[nH]c2c1=O [crystal form E]" group="class 0"
compound="Cn1cc(-c2nc(N=S(C)(C)=O)ccc2Oc2ccc(F)cc2F)c2cc[nH]c2c1=O [crystal form F]" group="class 0"
compound="Cn1cc(-c2nc(N=S(C)(C)=O)ccc2Oc2ccc(F)cc2F)c2cc[nH]c2c1=O [crystal form A]" group="class 1"

Ask | Quick check, Impurity content >= 1%? Cn1cc(-c2nc(N=S(C)(C)=O)ccc2Oc2ccc(F)cc2F)c2cc[nH]c2c1=O [crystal form I]
Reply | class 1
